- System: P388 leukemia ip, CD2F1 mice, survival T/C
- PROCEDURE_TEXT: NCI In Vivo Anticancer Drug Screen. Data for tumor model P388 Leukemia (intraperitoneal) in CD2F1 (CDF1) mice
- TEST_SETTINGS: endpoint: median survival time; dose: 50.0 mg/kg/injection; schedule: Q01DX009 (ip); vehicle: Klucel (hydroxypropylcellulose) (HPC); higher = longer survival
Toxic doses and inconclusive results are not listed.
Overview of reported T/C across a group of compounds:

| COMPOUND | TARGET_DESC | ATTRIBUTE_MEASURED | OBS_VALUE |
| --- | --- | --- | --- |
| CCOC(=O)CCCCCCCCNC(=S)N1c2c(nc(N)[nH]c2=O)NCC1CNc1ccc(C(=O)NC(CCC(=O)O)C(=O)O)cc1 (stereo not given) | P388 leukemia ip, CD2F1 mice, survival T/C | T/C | 90 % of control |
| CC1COn2c1nc1ccccc1c2=O (stereo not given) | P388 leukemia ip, CD2F1 mice, survival T/C | T/C | 104 % of control |
| O=c1nc(-c2ccccc2)sc(=O)[nH]1 | P388 leukemia ip, CD2F1 mice, survival T/C | T/C | 102 % of control |

Q: Answer with the recorded T/C for the compound listed here: `Nc1nc(N)nc(NCCSS(=O)(=O)O)n1`
A: 94 % of control

Q: Answer with the recorded T/C for the compound listed here: `CN(C)CC/C([O-])=N/[n+]1c2c(nc3ccccc31)-c1cccc3cccc-2c13`
A: 111 % of control

Q: Answer with the recorded T/C for the compound listed here: `NNC(=O)c1ccc(-c2ccccc2)cc1`
A: 110 % of control

Q: Answer with the recorded T/C for the compound listed here: O=C1CCC(C(Sc2ccccc2)Sc2ccccc2)C1 (stereo not given)
A: 110 % of control

Q: Answer with the recorded T/C for the compound listed here: `COc1ccc(/C(N)=N/OCc2ccc(C#N)cc2)cc1`
A: 96 % of control

Q: Answer with the recorded T/C for the compound listed here: `Cc1ccc(/C(CBr)=N/N=C(/CBr)c2ccc(C)cc2)cc1`
A: 100 % of control

Q: Answer with the recorded T/C for the compound listed here: `CCn1c(=O)c2[nH]c(Cl)nc2n(C)c1=O`
A: 94 % of control

Q: Answer with the recorded T/C for the compound listed here: `CCN(CC)CCNc1ccc(N=Nc2cnc3ccccc3c2)c2ccccc12`
A: 115 % of control

Q: Answer with the recorded T/C for the compound listed here: `O=C(NO)c1ccccc1`
A: 98 % of control

Q: Answer with the recorded T/C for the compound listed here: `CCOC(=O)c1c(C)[nH]c2c(-c3ccccc3)c3cc(Cl)ccc3nc12`
A: 103 % of control

Entry source: PubChem BioAssay AID330
